# assayComment: Cytotoxicity against mock-infected CEM cells assessed as reduction of cell viability
# Assay type: cell-based
# testContext: human, mock-infected CEM (CCRF-CEM) cells
Each entry below carries its reported CC50.
Write the value in µM as a bare number.

As a guide, the following entries are already answered.
>>> df
                                   molecule  resultunits  valuereported
0  Cc1cc(-c2ccccc2)nc(N2C(=O)CSC2c2c(F)cccc2Cl)n1 (stereo not given)           µM            172
1  Cc1cc(C(F)(F)F)nc(N2C(=O)CSC2c2c(F)cccc2F)n1 (stereo not given)           µM            140
2  Cc1cc(N2C(=O)CSC2c2c(Cl)cccc2Cl)nc(C)n1 (stereo not given)           µM             42
3  Cc1cc(C(F)(F)F)nc(N2C(=O)CSC2c2c(F)cccc2Cl)n1 (stereo not given)           µM           19.3
4  Cc1cc(-c2ccccc2)nc(N2C(=O)CSC2c2c(Cl)cccc2Cl)n1 (stereo not given)           µM           35.3

What measured CC50 goes with Cc1cc(C(F)(F)F)nc(N2C(=O)CSC2c2c(Cl)cccc2Cl)n1 (stereo not given) ?
46.7

What measured CC50 goes with Cc1cc(-c2ccccc2)nc(N2C(=O)CSC2c2c(F)cccc2F)n1 (stereo not given) ?
36.5

What measured CC50 goes with Cc1cc(N2C(=O)CSC2c2c(F)cccc2Cl)nc(C)n1 (stereo not given) ?
47.6

What measured CC50 goes with Cc1cc(N2C(=O)CSC2c2c(F)cccc2F)nc(C)n1 (stereo not given) ?
272

* * *

Each entry below carries its reported inhibition.
# studyTarget: UniProt Q72547
# assayComment: Inhibition of HIV1 reverse transcriptase at 100 ug/ml
Write the value in % as a bare number.

>>> df
                                   compound  assayendpoint  valuereported
0  Cc1cc(N2C(=O)CSC2c2c(F)cccc2F)nc(C)n1 (stereo unspecified)     inhibition           58.1
1  Cc1nc(N2C(=O)CSC2c2c(F)cccc2Cl)nc(C)c1C (stereo unspecified)     inhibition            100
2  Cc1nc(N2C(=O)CSC2c2c(F)cccc2F)nc(C)c1C (stereo unspecified)     inhibition            100
3  O=C1CSC(c2c(F)cccc2Cl)N1c1nc(-c2ccccc2)cc(C(F)(F)F)n1 (stereo unspecified)     inhibition           20.6
4  Cc1cc(-c2ccccc2)nc(N2C(=O)CSC2c2c(Cl)cccc2Cl)n1 (stereo unspecified)     inhibition           51.5

Now look at this one.
Form field: inhibition recorded for O=C1CSC(c2c(F)cccc2F)N1c1nc(-c2ccccc2)cc(-c2ccccc2)n1 (stereo unspecified) with UniProt Q72547 (enter value)
44
